Tested on: Mel270 UM cell line
Assay: 72 hr CellTiter-Glo cell proliferation assay, Mel270
Assay type: cell-based
Details: Mel270 cell line, 72 hr CTG; read-out: IC50 single agent activity
Property: IC50 (nM)

>  <Structure Smiles>
COc1cc2c(cc1OC(C)C)[C@H](c1ccc(Cl)cc1)N(c1ccc(N(C)C[C@H]3CC[C@H](N4CCN(C)C(=O)C4)CC3)cc1)C(=O)C2

>  <Tested Target>
Mel270 UM cell line

>  <Units Label>
nM

>  <Measurement>
362

$$$$

====

Test system: OMM2.5 UM cell line
Experiment: 72 hr CellTiter-Glo cell proliferation assay, OMM2.5
Format: cell-based
Conditions: 72 h, read-out: IC50 single agent activity
Property: IC50 (µM)

>  <Compound>
COc1ncc(-c2nc3c(n2C(C)C)[C@H](c2ccc(Cl)cc2)N(c2cc(Cl)cn(C)c2=O)C3=O)c(OC)n1 [Compound B]

>  <Units Label>
µM

>  <Measurement>
0.249

$$$$

Source of measurements: patent US20200246331A1
